Hello, the source for this data is ChEMBL document CHEMBL1126095, in case you need it.

experiment: Binding affinity against Opioid receptor delta 1 in guinea pig brain homogenates, using [3H]DPDPE as radioligand.
Positions of bridges follow the written chain, without caps; N, C: chain ends. Non-standard residues stand in square brackets, D forms with d. Residues, ends and D or L forms follow the SMILES beside them. Pen = CC(C)(S)[C@H](N)C(=O)O
ENDPOINT: Ki

• CC1(C)SSC[C@H](NC(=O)[C@@H](N)Cc2ccc(O)cc2)C(=O)N[C@@H](Cc2ccccc2)C(=O)N[C@@H]1C(=O)O (H-YCF[Pen]-OH; disulfide 2-4) = 1.79 nM

----------
Mu-type opioid receptor (Cavia porcellus): recorded Ki for assorted compounds
Sequence (P97266 whole entry): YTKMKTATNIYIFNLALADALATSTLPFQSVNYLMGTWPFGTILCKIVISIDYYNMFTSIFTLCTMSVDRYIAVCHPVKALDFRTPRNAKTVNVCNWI
ENDPOINT: Ki (µM)

• CC1(C)SSC[C@@H](NC(=O)[C@H]2NCC[C@@H]2c2ccc(O)cc2)C(=O)N[C@@H](Cc2ccccc2)C(=O)N[C@@H]1C(=O)O = 0.105
• CC1(C)SSC[C@@H](NC(=O)[C@@H]2NCC[C@@H]2c2ccc(O)cc2)C(=O)N[C@@H](Cc2ccccc2)C(=O)N[C@@H]1C(=O)O = 10

----------
target: Kappa-type opioid receptor (Cavia porcellus, UniProt P41144)
Sequence (P41144 whole entry): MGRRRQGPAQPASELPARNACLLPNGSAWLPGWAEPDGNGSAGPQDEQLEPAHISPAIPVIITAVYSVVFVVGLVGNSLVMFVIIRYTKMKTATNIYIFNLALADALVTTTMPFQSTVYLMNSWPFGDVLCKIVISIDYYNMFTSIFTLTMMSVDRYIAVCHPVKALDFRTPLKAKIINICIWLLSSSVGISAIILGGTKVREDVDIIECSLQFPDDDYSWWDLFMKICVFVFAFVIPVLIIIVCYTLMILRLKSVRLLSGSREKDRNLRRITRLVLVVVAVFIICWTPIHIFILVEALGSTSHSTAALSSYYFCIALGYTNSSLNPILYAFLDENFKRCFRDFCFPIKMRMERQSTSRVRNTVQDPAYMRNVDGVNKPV
ENDPOINT: Ki (µM)

• CC1(C)SSC[C@@H](NC(=O)[C@H]2NCC[C@@H]2c2ccc(O)cc2)C(=O)N[C@@H](Cc2ccccc2)C(=O)N[C@@H]1C(=O)O = 10
